Molecular target: human SGLT1 (Homo sapiens (Human), UniProt P13866)
Sequence (P13866 whole entry): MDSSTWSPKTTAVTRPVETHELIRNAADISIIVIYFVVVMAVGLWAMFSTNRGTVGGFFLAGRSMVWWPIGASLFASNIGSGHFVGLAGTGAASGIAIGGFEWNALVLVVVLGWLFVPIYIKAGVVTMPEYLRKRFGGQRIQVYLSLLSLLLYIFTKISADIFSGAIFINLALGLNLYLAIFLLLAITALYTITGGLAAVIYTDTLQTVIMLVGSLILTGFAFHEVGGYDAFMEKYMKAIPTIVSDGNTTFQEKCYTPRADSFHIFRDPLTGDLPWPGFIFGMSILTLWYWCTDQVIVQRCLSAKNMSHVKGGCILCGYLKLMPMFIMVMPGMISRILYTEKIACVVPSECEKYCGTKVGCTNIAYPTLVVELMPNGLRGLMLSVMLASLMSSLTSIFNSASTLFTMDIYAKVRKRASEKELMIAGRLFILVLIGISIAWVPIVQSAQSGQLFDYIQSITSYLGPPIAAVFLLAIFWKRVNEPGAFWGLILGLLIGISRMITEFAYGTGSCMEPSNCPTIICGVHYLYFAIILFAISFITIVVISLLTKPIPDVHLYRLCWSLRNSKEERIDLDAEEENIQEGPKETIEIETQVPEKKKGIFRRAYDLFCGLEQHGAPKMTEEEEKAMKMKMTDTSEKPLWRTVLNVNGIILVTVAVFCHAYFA
Test: SGLT1 inhibitory activity: 14C-AMG uptake into CHO-K1 cell line stably expressing human SGLT1
Type: cell-based
Conditions: 14C-AMG uptake, CHO-K1 cells expressing human SGLT1
assay metric: pIC50
Expect pIC50 as a plain number equal to -log10 of the molar concentration.

See these solved cases before continuing.
INSERT INTO measurements (molecule, value_observed) VALUES
  ('O=C1C[C@@H](C(=O)Nc2cc(-c3cccc(OCCC(F)(F)F)c3)n(-c3ccccc3)n2)CN1 [Example 149]', 8.02),
  ('CCCc1cc(-c2cc(NC(=O)[C@H]3CNC(=O)C3)nn2-c2ccccc2)ccc1F [Example 50]', 7.66),
  ('CCCc1cccc(-c2cc(NC(=O)[C@H]3CNC(=O)N3C)nn2-c2ccccc2)c1 [Example 6]', 8.14);

Moving on to the next molecule.
Incoming: Identify measured pIC50 corresponding to CCCc1cccc(-c2cc(NC(=O)[C@H]3CNC(=O)C3)nn2-c2ccccc2)c1 [Example 22]
Outgoing: 8.33
